# PROCEDURE_TEXT: Cytotoxicity against human A549 cells assessed as cell viability recovery at 1.8 to 8.8 uM by MTT assay relative to untreated control
# Type: cell-based
# CONDITIONS: read-out: Activity
MEASUREMENT_LABEL: viability at up to 8.8 µM

Challenge: Requested field: viability at up to 8.8 µM. Item: `CC(C)Nc1nc(NC2CCCCC2)c2ccccc2n1`
Response given: > 100%

###

# Tested on: Staphylococcus aureus
# PROCEDURE_TEXT: Antimicrobial activity against methicillin-resistant Staphylococcus aureus CBD-635 assessed as zone of inhibition at 5 mg/ml after 24 hrs by disk diffusion assay
# Assay type: functional
# CONDITIONS: CBD-635, 24 h, read-out: IZ
MEASUREMENT_LABEL: zone of inhibition at 5000 µg/mL (mm)
Express your answer in mm, writing the number without its unit.

CCCCNc1nc(NCCCC)c2ccccc2n1 : 12
Clc1ccc(Nc2nc(NCc3ccco3)nc3ccccc23)cc1 : 10
CSCCNc1nc(NC(C)C)nc2ccccc12 : 9
CC(C)Nc1nc(NC2CCCC2)nc2ccccc12 : 8
CC(C)Nc1nc(NCc2ccco2)c2cc(Cl)ccc2n1 : 11
CC(C)Nc1nc(NCc2ccco2)c2ccc(Cl)cc2n1 : 12
COc1ccc2nc(NC(C)C)nc(NCc3ccco3)c2c1 : 10
CC(C)Nc1nc(NC2CCCC2)c2ccccc2n1 : 10
CC(C)(C)Nc1nc(NCc2ccco2)c2ccccc2n1 : 9
c1coc(CNc2nc(NC3CCCCC3)nc3ccccc23)c1 : 10

Challenge: Requested field: zone of inhibition at 5000 µg/mL. Item: `c1ccc(CNc2nc(Nc3ccccc3)c3ccccc3n2)cc1`
Response given: 10

Challenge: Entry to check: `CC(C)Nc1nc(NC2CCCCC2)c2ccccc2n1`
Response given: 13
